Values were extracted from paper PMC4335062.

# pKd annotations
tested target: NFIL3 (Homo sapiens, UniProt Q16649)
Construct: made in house
Sequence (Q16649 73-136 limits assumed): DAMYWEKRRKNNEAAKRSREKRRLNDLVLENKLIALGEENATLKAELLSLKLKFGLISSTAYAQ
experiment: Direct-binding FRET assay
assay conditions: 4°C; N-terminal rhodamine design; mean or single; read-out: Kd
pKd: −log10 of the molar value. Where no end group is shown, it is not given here.

# macromolecule sequence, pKd
measured = [
    ("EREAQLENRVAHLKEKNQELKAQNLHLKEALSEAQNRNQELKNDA [XBP1-d1]", "< 6.00"),
    ("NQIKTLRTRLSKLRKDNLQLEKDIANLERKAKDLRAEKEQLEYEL [ATF4-d1]", "< 6.00"),
    ("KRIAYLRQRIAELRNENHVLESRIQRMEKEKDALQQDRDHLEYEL [ATF5-d1]", "< 6.00"),
]
